Kindly supply the reported pIC50 values for the records listed here.
- System: SW1573
- assay name: cells
- Type: functional, cell-based
- applied conditions: Homo sapiens
- Description: SANGER: Inhibition of human SW1573 cell growth in a cell viability assay.
Give bare numbers, as −log10 of the molar value.

Sample answers from the record:
{"columns": ["sample smiles", "target entity", "assay result"],
 "data": [
  ["Fc1cc(-c2cc[nH]/c(=N/c3ccc(-n4cnc(N5CCOCC5)n4)cc3)n2)cc(N2CCOCC2)c1", "SW1573", 6.05],
  ["C[C@]12O[C@H](C[C@]1(O)CO)n1c3ccccc3c3c4c(c5c6ccccc6n2c5c31)CNC4=O", "SW1573", 5.97]
]}

Kindly consider the entry below.
Request: Form entry - test system: SW1573; read-out: pIC50; compound: `CC[C@@]1(O)C(=O)OCc2c1cc1n(c2=O)Cc2cc3ccccc3nc2-1`;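 also: growth inhibition of SW1573 cells, read out with a cell viability assay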
Response: 8.63

----------
- System: CCRF-CEM;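 also: inhibition of CCRF-CEM cell growth, measured by a cell viability assay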
- assay name: cells
- Format: functional, cell-based
- applied conditions: Homo sapiens
- Description: SANGER: Inhibition of human CCRF-CEM cell growth in a cell viability assay.
pIC50: −log10 of the molar value.
measure name: pIC50

Here are 8 compounds. What values of pIC50 were reported for them?
1. Cc1[nH]c(/C=C2\C(=O)Nc3ccc(S(=O)(=O)Cc4c(Cl)cccc4Cl)cc32)c(C)c1C(=O)N1CCC[C@@H]1CN1CCCC1
2. C[C@]1(c2nc3c(C(N)=O)cccc3[nH]2)CCCN1
3. Cc1ccc(NC(=O)c2cccc(C(C)(C)C#N)c2)cc1Nc1ccc2ncn(C)c(=O)c2c1
4. CCNc1cc(N[C@H]2CC[C@@H](O)CC2)nc(Nc2ccc3c(ccn3Cc3ccccc3)c2)n1
5. CC(=O)c1c(C)c2cnc(Nc3ccc(N4CCNCC4)cn3)nc2n(C2CCCC2)c1=O
6. Cn1cc(/C=C2\C(=O)Nc3cccnc32)c2ccccc21
7. C/C(O)=C(\C#N)C(=O)Nc1cc(Br)ccc1Br
8. O=c1cc(N2CCOCC2)oc2c(-c3cccc4c3sc3ccccc34)cccc12

Response:
["< 5.70", "< 5.30", "< 5.40", "< 5.29", "< 5.40", "< 5.70", "< 4.80", "< 5.70"]

Each compound below has a recorded value; state its pIC50.
1. Cc1nc(Nc2ncc(C(=O)Nc3c(C)cccc3Cl)s2)cc(N2CCN(CCO)CC2)n1
2. O=c1[nH]c2ccccc2n1C1CCN(Cc2ccc(-c3nc4cc5[nH]cnc5cc4nc3-c3ccccc3)cc2)CC1
3. N#C/C(=C1/Nc2ccccc2S1)c1ccnc(NCCc2cccnc2)n1
4. CC[C@]1(O)C[C@@H]2CN(CCc3c([nH]c4ccccc34)[C@@](C(=O)OC)(c3cc4c(cc3OC)N(C)[C@H]3[C@@](O)(C(=O)OC)[C@H](OC(C)=O)[C@]5(CC)C=CCN6CC[C@]43[C@@H]65)C2)C1

Response:
1: < 5.89; 2: < 5.59; 3: < 5.10; 4: 8.00

----------
- System: K562
- assay name: cells
- Assay type: functional, cell-based
- applied conditions: Homo sapiens
- Description: SANGER: Inhibition of human K-562 cell growth in a cell viability assay.
measure name: IC50

Below, 2 compounds whose answers are already recorded.
{"columns": ["sample smiles", "IC50"],
 "data": [
  ["CC(C)=CC[C@@H](O)C1=CC(=O)c2c(O)ccc(O)c2C1=O", "> 16 µM"],
  ["C[C@]1(c2nc3c(C(N)=O)cccc3[nH]2)CCCN1", "> 5 µM"]
]}

Moving on to another compound below.
Request: Any idea what its IC50 is? The compound is `C[C@]12O[C@H](C[C@]1(O)CO)n1c3ccccc3c3c4c(c5c6ccccc6n2c5c31)CNC4=O`
Response: > 2 µM

----------
- System: EFO-21;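 also: growth inhibition of EFO-21 cells measured with a viability assay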
- assay name: cells
- Type: functional, cell-based
- applied conditions: Homo sapiens
- Description: SANGER: Inhibition of human EFO-21 cell growth in a cell viability assay.
measure name: IC50 (µM)
One number for each entry, in µM.

Study these solved cases before continuing.
{"columns": ["molecule", "unit annotation", "IC50"],
 "data": [
  ["C/C=C(/C)C(=O)O[C@H]1C(C)=C2[C@H]([C@@H]1OC(=O)CCCCCCC)[C@@](C)(OC(C)=O)C[C@H](OC(=O)CCC)[C@@]1(O)[C@H]2OC(=O)[C@@]1(C)O [THAPSIGARGIN]", "µM", 0.0164],
  ["CC[C@@]1(O)C(=O)OCc2c1cc1n(c2=O)Cc2cc3ccccc3nc2-1 [CAMPTOTHECIN]", "µM", 0.0203],
  ["Fc1cc(-c2cc[nH]/c(=N/c3ccc(-n4cnc(N5CCOCC5)n4)cc3)n2)cc(N2CCOCC2)c1", "µM", 0.913]
]}

Now consider the entry below.
Request: Which IC50 is reported for this molecule? CCNC(=O)c1noc(-c2cc(C(C)C)c(O)cc2O)c1-c1ccc(CN2CCOCC2)cc1 [LUMINESPIB]
Response: 0.0899

----------
Provide the recorded IC50 for the entries that follow.
- Test system: MDA-MB-415
- assay name: cells
- Format: functional, cell-based
- applied conditions: Homo sapiens

Example entries and their recorded answers appear below.
{"columns": ["sample smiles", "target entity", "IC50"],
 "data": [
  ["C/C=C(/C)C(=O)O[C@H]1C(C)=C2[C@H]([C@@H]1OC(=O)CCCCCCC)[C@@](C)(OC(C)=O)C[C@H](OC(=O)CCC)[C@@]1(O)[C@H]2OC(=O)[C@@]1(C)O", "MDA-MB-415", "> 512 nM"],
  ["CC(=O)c1c(C)c2cnc(Nc3ccc(N4CCNCC4)cn3)nc2n(C2CCCC2)c1=O", "MDA-MB-415", "> 4000 nM"],
  ["O=c1[nH]c2ccccc2n1C1CCN(Cc2ccc(-c3nc4cc5[nH]cnc5cc4nc3-c3ccccc3)cc2)CC1", "MDA-MB-415", "1730 nM"],
  ["C[C@]1(c2nc3c(C(N)=O)cccc3[nH]2)CCCN1", "MDA-MB-415", "> 5000 nM"]
]}

API: the following record is the query input.
Request: Requested read-out IC50, target or system MDA-MB-415, entry `CC[C@]1(O)C[C@@H]2CN(CCc3c([nH]c4ccccc34)[C@@](C(=O)OC)(c3cc4c(cc3OC)N(C)[C@H]3[C@@](O)(C(=O)OC)[C@H](OC(C)=O)[C@]5(CC)C=CCN6CC[C@]43[C@@H]65)C2)C1`
Response: 18.5 nM

----------
Provide the recorded IC50 for the entries that follow.
- System: ECC4
- assay name: cells
- Type: functional, cell-based
- applied conditions: Homo sapiens
- Description: SANGER: Inhibition of human ECC4 cell growth in a cell viability assay.

# annotated cases, reported IC50 shown
{"columns": ["molecule", "target entity", "IC50"],
 "data": [
  ["CCNC(=O)c1noc(-c2cc(C(C)C)c(O)cc2O)c1-c1ccc(CN2CCOCC2)cc1", "ECC4", "199 nM"],
  ["N#C/C(=C1/Nc2ccccc2S1)c1ccnc(NCCc2cccnc2)n1", "ECC4", "> 8000 nM"],
  ["Cc1[nH]c(/C=C2\\C(=O)Nc3ccc(S(=O)(=O)Cc4c(Cl)cccc4Cl)cc32)c(C)c1C(=O)N1CCC[C@@H]1CN1CCCC1", "ECC4", "> 2000 nM"],
  ["Cc1ccc(NC(=O)c2cccc(C(C)(C)C#N)c2)cc1Nc1ccc2ncn(C)c(=O)c2c1", "ECC4", "> 4000 nM"],
  ["O=c1[nH]c2ccccc2n1C1CCN(Cc2ccc(-c3nc4cc5[nH]cnc5cc4nc3-c3ccccc3)cc2)CC1", "ECC4", "> 2560 nM"]
]}

For each of the molecules below, state IC50.
1. CCn1c(-c2nonc2N)nc2cnc(Oc3cccc(NC(=O)c4ccc(OCCN5CCOCC5)cc4)c3)cc21 [GSK-269962A]
2. C/C(O)=C(\C#N)C(=O)Nc1cc(Br)ccc1Br

Response:
["> 2500 nM", "> 16000 nM"]

----------
- Test system: HuO9
- assay name: cells
- Type: functional, cell-based
- applied conditions: Homo sapiens
- Description: SANGER: Inhibition of human HuO9 cell growth in a cell viability assay.
pIC50: −log10 of the molar value.
measure name: pIC50

{"columns": ["sample smiles", "target entity", "pIC50"],
 "data": [
  ["COc1cc(Nc2c(C#N)cnc3cc(OCCCN4CCN(C)CC4)c(OC)cc23)c(Cl)cc1Cl", "HuO9", "< 5.70"],
  ["C[C@]1(c2nc3c(C(N)=O)cccc3[nH]2)CCCN1", "HuO9", "< 5.30"],
  ["Cn1cc(/C=C2\\C(=O)Nc3cccnc32)c2ccccc21", "HuO9", "< 5.70"]
]}

Turning to the following compound.
Request: Find the recorded pIC50 belonging to `O=c1[nH]c2ccccc2n1C1CCN(Cc2ccc(-c3nc4cc5[nH]cnc5cc4nc3-c3ccccc3)cc2)CC1` and report it.
Response: 5.81

----------
- System: CTB-1
- assay name: cells
- Type: functional, cell-based
- applied conditions: Homo sapiens
- Description: SANGER: Inhibition of human CTB-1 cell growth in a cell viability assay.
measure name: IC50

// batch mode: one IC50 value per listed entry
1. Cc1ccc(NC(=O)c2cccc(C(C)(C)C#N)c2)cc1Nc1ccc2ncn(C)c(=O)c2c1
2. CC(O)(CS(=O)(=O)c1ccc(F)cc1)C(=O)Nc1ccc(C#N)c(C(F)(F)F)c1 (stereo not drawn) [BICALUTAMIDE]
3. NC(=O)c1ncn([C@@H]2O[C@H](COP(=O)(O)O)[C@@H](O)[C@H]2O)c1N

Response:
1: > 4 µM; 2: > 1.02 µM; 3: 646 µM
